These data points were gathered from patent US20050171037A1.

- Protocol text: Compound B pharmacokinetics after oral administration of a single dose alone (fasting) and with ritonavir (fed), human subjects
- Type: in vivo
- Test context: plasma, po, 900 mg, single oral dose 900 mg (active dose 810 mg), alone, fasting, arithmetic mean, read-out: t1/2 (terminal phase plasma half-life) (converted)
Reported metric: half-life (h)
Give bare numbers, in h.

I would be grateful if you could share the reported half-life for Cc1c(O)cccc1C(=O)N[C@@H](Cc1ccccc1)[C@H](O)C(=O)N1CC(F)(F)C(C)(C)[C@H]1C(=O)NCC(F)(F)F .
3.25

====

- Protocol text: Compound B pharmacokinetics after oral administration of a single dose alone (fasting) and with ritonavir (fed), human subjects
- Type: in vivo
- Test context: plasma, po, single oral dose 450 mg (active 405 mg) + ritonavir (100 mg every 12 hours for 3 doses), fed, geometric mean
Reported metric: Cmax

I would be grateful if you could share the reported Cmax for Cc1c(O)cccc1C(=O)N[C@@H](Cc1ccccc1)[C@H](O)C(=O)N1CC(F)(F)C(C)(C)[C@H]1C(=O)NCC(F)(F)F .
3830 ng/mL

====

- Protocol text: Compound B pharmacokinetics after oral administration of a single dose alone (fasting) and with ritonavir (fed), human subjects
- Format: in vivo
- Test context: plasma, po, single oral dose 300 mg (active 270 mg) + ritonavir (100 mg every 12 hours for 3 doses), geometric mean
Reported metric: Cmax (ng/mL)
Numbers only, in ng/mL.

I would be grateful if you could share the reported Cmax for Cc1c(O)cccc1C(=O)N[C@@H](Cc1ccccc1)[C@H](O)C(=O)N1CC(F)(F)C(C)(C)[C@H]1C(=O)NCC(F)(F)F .
3100

====

- Protocol text: Compound B pharmacokinetics after oral administration of a single dose alone (fasting) and with ritonavir (fed), human subjects
- Assay type: in vivo
- Test context: plasma, po, 300 mg, single oral dose 300 mg (active dose 270 mg), alone, fasting, geometric mean
Reported metric: Cmax
Include the unit after the number when you answer.

I would be grateful if you could share the reported Cmax for Cc1c(O)cccc1C(=O)N[C@@H](Cc1ccccc1)[C@H](O)C(=O)N1CC(F)(F)C(C)(C)[C@H]1C(=O)NCC(F)(F)F [Compound B] .
1530 ng/mL

====

- Protocol text: Compound B pharmacokinetics after oral administration of a single dose alone (fasting) and with ritonavir (fed), human subjects
- Format: in vivo
- Test context: plasma, po, 1800 mg, single oral dose 1800 mg (active dose 1620 mg), alone, fasting, geometric mean, read-out: AUC (area under the concentration-time curve from time 0 to infinity)
- Experimental: Nos. 11/008325, filed Dec. 8, 2004, and 60/591,351, filed Jul. 26, 2004, all of which are hereby incorporated by reference for this purpose. A total of 21 human subjects were administered a single 300 mg, 900 mg, 1800 mg, or 3600 mg dose of a spray-dried composition comprising 90 wt % amorphous Compound B and 10 wt % hydroxypropyl methyl cellulose acetate succinate (HPMCAS) under fasting conditions. […]
Reported metric: AUC (µg·h/mL)
Give bare numbers, in µg·h/mL.

I would be grateful if you could share the reported AUC for Cc1c(O)cccc1C(=O)N[C@@H](Cc1ccccc1)[C@H](O)C(=O)N1CC(F)(F)C(C)(C)[C@H]1C(=O)NCC(F)(F)F [Compound B] .
74.5

====

- Protocol text: Compound A pharmacokinetics after oral administration of a single dose with and without ritonavir, human subjects, fed
- Assay type: in vivo
- Test context: plasma, po, 1500 mg, single oral dose 1500 mg, without ritonavir, median
Reported metric: Tmax (h)
Answers are plain numbers, in h.

I would be grateful if you could share the reported Tmax for C=CCNC(=O)[C@H]1N(C(=O)[C@@H](O)[C@H](Cc2ccccc2)NC(=O)c2cccc(O)c2C)CSC1(C)C .
4
